Measured melting point by item

Record excerpt, results attached:
compound	measured endpoint	reported value
Cn1nc(N2CCNCC2)c2ccccc21	melting point	100 to 102 °C
O=C1CC(=O)N(c2ccccc2)c2cc(Cl)ccc2N1Cc1ccccc1	melting point	173 to 175 °C
CCC1=C(C)C(=O)NC1=CBr	melting point	250 to 251 °C
C[C@@H](NC(=O)c1c[nH]c2ncc(-c3nn(C)c4ccsc34)nc12)C(=O)N1CC(C#N)C1	melting point	310 to 320 °C
Cc1noc(C)c1-c1cnc2c(c1)N(Cc1c(F)ccc(F)c1Cl)CCN2	melting point	215 to 216 °C

Bench note: what melting point did CC(C)(C)OC(=O)Nc1ccc(C#Cc2nccs2)cc1NC(=O)CC(=O)c1cccc(C#N)c1 show?
131 °C

Bench note: what melting point did COc1ccc(C2(O)CCS(=O)(=O)CC2)cc1OC1CCCC1 show?
147 to 149 °C

Bench note: what melting point did CCCc1c(OCCOCCOc2ccc3ccc(OCC(=O)OC)cc3c2C(C)=O)ccc(C(C)=O)c1O show?
89 to 90 °C

Bench note: what melting point did CC(C)OCCNc1ccc(C(=O)N2CCN(CCc3ccc(Cl)cc3)CC2)cc1 show?
130 to 132 °C

Bench note: what melting point did c1cnc(-c2cc(C3CC3)on2)cn1 show?
86 to 91 °C

Bench note: what melting point did C=CCOc1ccc2c(C)cc(=O)oc2c1C(=O)C=Cc1cccnc1 show?
124 to 126 °C

Bench note: what melting point did Nc1ncc2ncn(CCC(CO)COC(=O)c3ccccc3)c2n1 (stereo unspecified) show?
116 to 118 °C

Bench note: what melting point did CN1CCN(C2=C3N=c4cc(Cl)ccc4=C3Oc3ccccc3N2C)CC1 show?
187 to 188 °C

Bench note: what melting point did COC(=O)c1cc(Br)c(OC)cc1O show?
122 to 124 °C

Bench note: what melting point did C=CC[C@@](O)(C(=O)O)c1ccccc1 show?
132 °C

Bench note: what melting point did COC(CCCNC(=O)c1ccc2c(c1)C(=O)N(CCCC(OC)OC)C2=O)OC show?
102 °C

Bench note: what melting point did COc1ccc(Nc2ccc(OCc3ccccc3)cc2)cc1 show?
108 °C

Bench note: what melting point did CC(C)NC(=O)c1cc2ncn(C)c2c(Cl)c1NC(=O)c1cc(C(F)(F)F)nn1-c1ncccc1Cl show?
150 to 155 °C

Bench note: what melting point did O=C(O)c1ccc(C(=O)Nc2cccc3cc(Br)cnc23)cc1 show?
> 300 °C

Bench note: what melting point did CC(C)(C)c1ccc2c(c1)C(CO)c1cc(C(C)(C)C)ccc1-2 show?
102 to 103 °C

Bench note: what melting point did CCn1c2ccccc2c2cc(C(C#N)=C(C#N)c3ccc(C(F)(F)F)cc3)ccc21 show?
180 to 182 °C

---

Measured melting point by item

compound	melting point
O=C1c2ccc(F)cc2C(=O)N1CC(=O)N1c2ccccc2N(Cc2ccccc2)C(=O)[C@H]2CCC[C@H]21 (relative stereo)	235 to 236 °C
CCCNC(=O)CCCc1ccc2c(c1)c(Cc1ccc(C(=O)NS(=O)(=O)c3ccccc3C)cc1OC)cn2CCC	94 to 95 °C
COc1ccccc1C(=O)N1CCN(CC2(C)Cc3c(C)c(N)c(C)c(C)c3O2)CC1 (centres undefined)	128 to 131 °C

Bench note: what melting point did CCN1CCCC1=NC(=O)Nc1cccc(Cl)c1 show?
122 to 124 °C

Bench note: what melting point did CC(=O)NC[C@H]1CN(c2ccc(N3CCC(=C(C#N)c4ccccn4)CC3)c(F)c2)C(=O)O1 show?
265 to 267 °C

Bench note: what melting point did Cc1cc(C(C)C)c(C=O)[nH]1 show?
90 to 93 °C
